Task for the reader: assign each of the following molecules its reported pIC50.
assayed-system: JAK1 (h) (Homo sapiens, UniProt P23458)
Construct: purchased Millipore UK Ltd (assays performed there as a service)
Sequence (P23458 whole entry): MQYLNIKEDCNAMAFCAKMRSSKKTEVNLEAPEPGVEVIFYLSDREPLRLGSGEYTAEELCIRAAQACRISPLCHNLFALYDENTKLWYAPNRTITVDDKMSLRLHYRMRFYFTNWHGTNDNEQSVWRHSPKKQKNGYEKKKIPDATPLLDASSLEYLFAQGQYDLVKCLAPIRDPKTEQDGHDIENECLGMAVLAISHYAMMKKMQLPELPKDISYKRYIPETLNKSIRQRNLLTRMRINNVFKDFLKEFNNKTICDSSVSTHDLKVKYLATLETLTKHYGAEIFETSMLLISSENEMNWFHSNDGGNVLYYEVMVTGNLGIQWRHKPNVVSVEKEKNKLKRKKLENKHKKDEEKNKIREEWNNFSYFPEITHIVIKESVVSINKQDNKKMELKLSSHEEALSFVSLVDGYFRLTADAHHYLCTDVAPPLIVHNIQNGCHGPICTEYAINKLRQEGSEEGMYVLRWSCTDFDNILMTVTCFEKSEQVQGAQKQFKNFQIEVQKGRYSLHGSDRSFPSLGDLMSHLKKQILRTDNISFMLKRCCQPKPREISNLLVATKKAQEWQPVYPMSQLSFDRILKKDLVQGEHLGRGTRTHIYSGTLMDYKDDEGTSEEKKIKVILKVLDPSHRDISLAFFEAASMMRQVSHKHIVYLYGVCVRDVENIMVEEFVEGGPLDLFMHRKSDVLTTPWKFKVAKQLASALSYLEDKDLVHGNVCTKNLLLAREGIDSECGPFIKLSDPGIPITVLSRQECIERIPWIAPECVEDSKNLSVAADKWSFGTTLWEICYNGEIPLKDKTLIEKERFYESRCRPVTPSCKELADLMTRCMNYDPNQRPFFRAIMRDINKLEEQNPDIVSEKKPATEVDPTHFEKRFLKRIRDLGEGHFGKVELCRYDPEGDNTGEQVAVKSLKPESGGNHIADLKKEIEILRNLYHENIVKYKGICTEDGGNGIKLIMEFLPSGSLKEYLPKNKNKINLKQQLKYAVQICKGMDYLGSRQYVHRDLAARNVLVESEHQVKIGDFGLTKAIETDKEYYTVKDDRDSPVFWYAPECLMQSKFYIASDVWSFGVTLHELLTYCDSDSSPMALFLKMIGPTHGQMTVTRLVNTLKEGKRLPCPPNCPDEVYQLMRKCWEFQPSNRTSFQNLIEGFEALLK
test-name: JAK1 (h) kinase assay
Format: biochemical
experimental-conditions: [γ-33P-ATP] 10 μM or KM values; 40 minutes at room temperature
pIC50: −log10 of the molar value.

# count of solved cases: 2
Incoming: Return reported pIC50; argument: CC(O)Cn1cnc2cc(Nc3ncc(Cl)c(NC4CCN(c5ccc(C#N)cn5)CC4)n3)ccc21 (stereo not drawn)
Outgoing: > 9.52

Incoming: Return reported pIC50; argument: CC(C)(O)Cc1cnc2cc(Nc3ncc(Cl)c(NC4CCN(c5ccc(C#N)cn5)CC4)n3)ccn12
Outgoing: > 9.52

# next molecule below
Incoming: Return reported pIC50; argument: Cc1nc2cc(Nc3ncc(Cl)c(NC4CCN(c5ccc(C#N)cn5)CC4)n3)ccc2n1C
Outgoing: > 9.52
